pKi values for the compounds below.
- Measured target: MTAN (Escherichia coli)
- Assay details: Enzyme inhibition assay, MTAN (slow-onset inhibition constants)
- Assay type: biochemical
- Assay context: Ki*, MTAN; equilibrium dissociation constant after slow-onset, tight binding inhibition
pKi: −log10 of the molar value.
Metric: pKi

>>> df
                                   compound  recorded_measurement
0  Nc1ncnc2c([C@@H]3N[C@H](CSc4ccc(Cl)cc4)[C@H](O)C3O)c[nH]c12 (stereo partly shown)                 11.22
1  CSC[C@H]1N[C@@H](c2c[nH]c3c(N)ncnc23)C(O)[C@H]1O (stereo partly shown)                 10.11
2  Nc1ncnc2c([C@@H]3N[C@H](CSCc4ccccc4)[C@H](O)C3O)c[nH]c12 (stereo partly shown)                 10.92
3  Nc1ncnc2c([C@@H]3N[C@H](CSc4cccc(Cl)c4)[C@H](O)C3O)c[nH]c12 (stereo partly shown)                 10.70

----------
- Measured target: MTAN (Escherichia coli, UniProt P0AF12)
- Sequence (P0AF12 whole entry): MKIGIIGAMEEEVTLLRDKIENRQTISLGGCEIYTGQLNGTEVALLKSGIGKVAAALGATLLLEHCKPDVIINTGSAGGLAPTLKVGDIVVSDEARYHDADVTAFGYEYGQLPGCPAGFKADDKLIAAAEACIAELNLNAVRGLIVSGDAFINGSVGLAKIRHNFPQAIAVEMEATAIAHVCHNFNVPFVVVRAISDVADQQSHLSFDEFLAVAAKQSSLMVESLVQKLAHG
- Assay details: Enzyme inhibition assay, MTAN (slow-onset inhibition constants)
- Type: biochemical
- Assay context: Ki, MTAN; initial inhibition constant
Metric: log10 Ki (log10 of the value in nM)

>>> df
                                   compound                          measured_target  recorded_measurement
0  Nc1ncnc2c([C@@H]3N[C@H](CSc4cccc5ccccc45)[C@H](O)C3O)c[nH]c12 (some centres unmarked)  MTAN (Escherichia coli, UniProt P0AF12)                 -0.12
1  Nc1ncnc2c([C@@H]3N[C@H](CSc4ccc(Cl)cc4)[C@H](O)C3O)c[nH]c12 (some centres unmarked)  MTAN (Escherichia coli, UniProt P0AF12)                 -2.22
2  Nc1ncnc2c([C@@H]3N[C@H](CSCCO)[C@H](O)C3O)c[nH]c12 (some centres unmarked) [5′-Hydroxyethylthio-ImmA]  MTAN (Escherichia coli, UniProt P0AF12)                 -0.39
3  Cc1cccc(SC[C@H]2N[C@@H](c3c[nH]c4c(N)ncnc34)C(O)[C@H]2O)c1 (some centres unmarked)  MTAN (Escherichia coli, UniProt P0AF12)                 -1.82
4  Cc1ccc(SC[C@H]2N[C@@H](c3c[nH]c4c(N)ncnc34)C(O)[C@H]2O)cc1 (some centres unmarked)  MTAN (Escherichia coli, UniProt P0AF12)                 -1.74
